- Test system: K562
- protocol-details: Induction of apoptosis in human K562 cells assessed as total cells at late apoptotic stage at antiproliferative IC50 after 72 hrs by Annexin-V-FITC/propidium iodide staining based flow cytometry relative to control (reference value: 1.32 to 1.42%)
- Type: functional
Param threshold (2%) applies to Activity; output Met when value >= threshold, Not met when value < threshold.

O=C1C[C@H]2O[C@H](CF)[C@H](O)[C@H]2O1: Not met
O=C1C[C@H]2O[C@H]([C@@H](F)c3ccccc3)[C@H](O)[C@H]2O1: Met
O=C1C[C@H]2O[C@H]([C@H](F)c3ccccc3)[C@H](O)[C@H]2O1: Met
O=C1C[C@H]2O[C@H]([C@@H](O)c3ccccc3)[C@H](O)[C@H]2O1: Not met
O=C1C[C@H]2O[C@H]([C@H](Cl)c3ccccc3)[C@H](O)[C@H]2O1: Met
